Field: IC50. Provide a value for each of the molecules that follow.
SYSTEM TESTED: CDK1/CycB (Homo sapiens, UniProt P06493)
Construct: GST
Sequence (P06493 whole entry): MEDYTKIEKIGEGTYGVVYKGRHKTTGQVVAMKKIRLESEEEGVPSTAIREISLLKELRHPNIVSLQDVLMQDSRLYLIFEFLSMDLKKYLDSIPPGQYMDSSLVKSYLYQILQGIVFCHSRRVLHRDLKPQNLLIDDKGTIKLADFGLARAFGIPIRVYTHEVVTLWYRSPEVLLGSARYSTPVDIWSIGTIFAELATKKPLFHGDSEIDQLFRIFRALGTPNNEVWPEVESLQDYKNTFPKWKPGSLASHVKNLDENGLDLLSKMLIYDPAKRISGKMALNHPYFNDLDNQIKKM
Sequence (P14635 whole entry partner): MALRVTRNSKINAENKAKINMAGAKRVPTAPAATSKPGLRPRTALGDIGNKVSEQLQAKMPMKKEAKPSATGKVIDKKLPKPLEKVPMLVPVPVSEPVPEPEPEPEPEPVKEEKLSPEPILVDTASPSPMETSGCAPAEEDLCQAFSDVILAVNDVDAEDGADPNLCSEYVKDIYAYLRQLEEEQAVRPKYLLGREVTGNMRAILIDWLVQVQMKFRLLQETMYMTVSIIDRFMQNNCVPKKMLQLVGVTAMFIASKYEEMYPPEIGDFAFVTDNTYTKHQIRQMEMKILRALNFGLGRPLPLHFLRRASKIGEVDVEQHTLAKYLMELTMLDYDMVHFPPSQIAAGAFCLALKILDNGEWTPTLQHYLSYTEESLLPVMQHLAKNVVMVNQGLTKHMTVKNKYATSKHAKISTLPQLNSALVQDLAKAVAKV
TEST: CDK1/CycB kinase assay
REPORTED CONDITIONS: histone IIIS substrate, 0.5 μm ATP
Give bare numbers, in nM.

Below, each entry is followed by its recorded IC50 result.
{"columns": ["SMI", "IC50 / nM"],
 "data": [
  ["Cc1cc(Nc2ncc(Br)c(N[C@H](C)C(C)(C)O)n2)cc(C)c1S(N)(=O)=O", 3],
  ["Cc1cc(Nc2ncc(Br)c(O[C@H](C)[C@@H](C)O)n2)cc(Br)c1S(N)(=O)=O", 12],
  ["Cc1cc(Nc2ncc(Br)c(N[C@H](C)[C@@H](C)O)n2)cc(C)c1S(N)(=O)=O", 5],
  ["Cc1cc(Nc2ncc(Br)c(O[C@H](C)[C@@H](C)O)n2)cc(C)c1S(N)(=O)=O", 8],
  ["Cc1cc(Nc2ncc(Br)c(N[C@H](C)[C@@H](C)O)n2)cc(Cl)c1S(N)(=O)=O", 5]
]}

Could you now look at the following molecule, please?
Q: Which measured IC50 value corresponds to Cc1cc(Nc2ncc(Br)c(N[C@H](C)CO)n2)cc(C)c1S(N)(=O)=O ?
Ans: 15

###

IC50 data for VEGF receptor tyrosine kinase-2 (Homo sapiens) follow.
One number for each entry, in nM.

{"columns": ["COMPOUND", "VALUE MEASURED"],
 "data": [
  ["Cc1cc(Nc2ncc(Br)c(N[C@H](C)C(C)(C)O)n2)cc(C)c1S(N)(=O)=O", 20]
]}

Need IC50 for each of these compounds.
1. Cc1cc(Nc2ncc(Br)c(N[C@H](C)CO)n2)cc(C)c1S(N)(=O)=O
2. C[C@@H](Nc1nc(Nc2ccc(S(N)(=O)=O)cc2)ncc1Br)C(C)(C)O [Example 271 from WO 02/096888, reference compound]
3. Cc1cc(Nc2ncc(Br)c(O[C@H](C)[C@@H](C)O)n2)cc(C)c1S(N)(=O)=O
4. C[C@@H](O)[C@@H](C)Nc1nc(Nc2ccc(S(N)(=O)=O)cc2)ncc1Br [Example 275 from WO 02/096888, reference compound]

Ans:
1. 18
2. 250
3. 39
4. 130

Q: Which measured IC50 value corresponds to Cc1cc(Nc2ncc(Br)c(O[C@H](C)[C@@H](C)O)n2)cc(Br)c1S(N)(=O)=O ?
Ans: 56

###

SYSTEM TESTED: CDK2/CycE (Homo sapiens, UniProt P24941)
Construct: GST
TEST: CDK2/CycE kinase assay
REPORTED CONDITIONS: histone IIIS substrate, 0.5 μm ATP
PROPERTY: pIC50
Give bare numbers, as −log10 of the molar value.

{"columns": ["COMPOUND", "pIC50"],
 "data": [
  ["Cc1cc(Nc2ncc(Br)c(O[C@H](C)[C@@H](C)O)n2)cc(Br)c1S(N)(=O)=O [Example 7]", 7.82],
  ["Cc1cc(Nc2ncc(Br)c(N[C@H](C)CO)n2)cc(C)c1S(N)(=O)=O [Example 1]", 7.85],
  ["Cc1cc(Nc2ncc(Br)c(O[C@H](C)[C@@H](C)O)n2)cc(C)c1S(N)(=O)=O [Example 6]", 8.10],
  ["Cc1cc(Nc2ncc(Br)c(N[C@H](C)C(C)(C)O)n2)cc(C)c1S(N)(=O)=O [Example 2]", 8.70],
  ["Cc1cc(Nc2ncc(Br)c(N[C@H](C)[C@@H](C)O)n2)cc(C)c1S(N)(=O)=O [Example 3]", 8.22]
]}

Could you now look at the following compound, please?
Q: // map Cc1cc(Nc2ncc(Br)c(N[C@H](C)[C@@H](C)O)n2)cc(Cl)c1S(N)(=O)=O [Example 4] to recorded pIC50 (system: CDK2/CycE (Homo sapiens, UniProt P24941))
Ans: 8.00

###

Field: pIC50. Provide a value for each of the compounds that follow.
SYSTEM TESTED: Human Carboanhydrase-2 (Homo sapiens, UniProt P00918)
Answers are plain numbers, as −log10 of the molar value.

{"columns": ["COMPOUND", "VALUE MEASURED"],
 "data": [
  ["C[C@@H](Nc1nc(Nc2ccc(S(N)(=O)=O)cc2)ncc1Br)C(C)(C)O [Example 271 from WO 02/096888, reference compound]", 6.28],
  ["Cc1cc(Nc2ncc(Br)c(O[C@H](C)[C@@H](C)O)n2)cc(Br)c1S(N)(=O)=O", 5.22]
]}

Could you now look at the following compound, please?
Q: Which measured pIC50 value corresponds to C[C@@H](O)[C@@H](C)Nc1nc(Nc2ccc(S(N)(=O)=O)cc2)ncc1Br [Example 275 from WO 02/096888, reference compound] ?
Ans: 6.09
